# assayed.target: EGFR (C797S L858R) (Homo sapiens, UniProt P00533, C797S/L858R)
# Construct: purchased signalchem
# Sequence (P00533 25-1210 C797S/L858R): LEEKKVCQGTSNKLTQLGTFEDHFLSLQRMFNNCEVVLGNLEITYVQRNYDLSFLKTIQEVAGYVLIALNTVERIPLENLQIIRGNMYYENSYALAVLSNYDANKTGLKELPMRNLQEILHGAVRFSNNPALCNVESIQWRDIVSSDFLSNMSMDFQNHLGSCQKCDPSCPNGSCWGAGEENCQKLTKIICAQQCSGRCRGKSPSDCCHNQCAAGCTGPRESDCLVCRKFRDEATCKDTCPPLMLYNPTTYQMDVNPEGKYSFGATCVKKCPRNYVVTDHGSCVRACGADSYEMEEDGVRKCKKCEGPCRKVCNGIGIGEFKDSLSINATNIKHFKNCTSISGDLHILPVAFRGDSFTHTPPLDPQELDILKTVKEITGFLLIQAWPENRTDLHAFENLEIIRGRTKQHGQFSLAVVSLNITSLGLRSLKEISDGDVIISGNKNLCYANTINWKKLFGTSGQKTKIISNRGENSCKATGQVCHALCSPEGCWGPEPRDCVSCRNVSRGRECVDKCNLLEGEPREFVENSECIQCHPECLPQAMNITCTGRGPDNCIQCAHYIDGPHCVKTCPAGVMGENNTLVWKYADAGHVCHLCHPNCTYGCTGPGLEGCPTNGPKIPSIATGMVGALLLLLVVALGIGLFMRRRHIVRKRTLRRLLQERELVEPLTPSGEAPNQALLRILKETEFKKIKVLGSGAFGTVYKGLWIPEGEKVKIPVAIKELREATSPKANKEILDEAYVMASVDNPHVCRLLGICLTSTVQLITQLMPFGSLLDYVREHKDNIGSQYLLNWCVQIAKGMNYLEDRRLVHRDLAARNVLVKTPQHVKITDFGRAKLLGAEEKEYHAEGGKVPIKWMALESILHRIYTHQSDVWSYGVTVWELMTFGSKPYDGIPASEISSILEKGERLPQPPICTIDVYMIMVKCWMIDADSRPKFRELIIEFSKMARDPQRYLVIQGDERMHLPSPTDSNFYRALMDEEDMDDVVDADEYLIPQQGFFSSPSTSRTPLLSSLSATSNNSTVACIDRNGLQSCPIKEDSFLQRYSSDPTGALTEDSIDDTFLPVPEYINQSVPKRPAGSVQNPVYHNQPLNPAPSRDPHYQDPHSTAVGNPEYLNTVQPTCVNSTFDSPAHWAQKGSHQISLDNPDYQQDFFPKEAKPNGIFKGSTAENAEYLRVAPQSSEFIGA
# method: Inhibition of EGFR (C797S L858R) biochemical enzymatic activity (HTRF)
# experimental.setup: EGFR L858-C797S, 1 mM ATP, 1 h, room temperature, read-out: IC50 (nM) @L858-C797S
measurement.kind: IC50 (nM)

Observe how each entry below is paired with its result.
CC(C)N1CCN(c2ccc3nc4n(c3c2)C23CCC(CN(CCOc5c(cnn5C)-c5cc(cn(C)c5=O)C(=O)N4)C2)C3)CC1 (single isomer, unassigned) [Example A108A]	942
C[C@@H]1CCCOc2c(cnn2CC(F)(F)F)-c2cc(cn(C)c2=O)C(=O)Nc2nc3ccc(N4CCN(C)CC4)cc3n2C1	132
CN(C)[C@H]1CCN(c2ccc3nc4n(c3c2)C23CCC(CN(CCOc5c(cnn5C)-c5cc(cn(C)c5=O)C(=O)N4)C2)C3)C1 (single isomer, unassigned) [Example A66B]	8.1
Cn1ncc2c1OCCN1CC3CCC(C3)(C1)n1c(nc3ccc(N4CCN(C5COC5)CC4)cc31)NC(=O)c1cc-2c(=O)n(C)c1 (single isomer, unassigned) [Example A71B]	20
C[C@@H]1CCCOc2c(cnn2C)-c2cc(cn(C)c2=O)C(=O)Nc2nc3ccc(N4CC5(CCN(C)C5)C4)cc3n2C1	6.7
CN(C)C1CCN(c2ccc3nc4n(c3c2)C23CCC(CN(CCOc5c(cnn5C)-c5cc(cn(C)c5=O)C(=O)N4)C2)C3)CC1(F)F (single isomer, unassigned) [Example A97B]	8.4
CN(C)C1CN(c2ccc3nc4n(c3c2)C23CCC(CN(CCOc5c(cnn5C)-c5cc(cn(C)c5=O)C(=O)N4)C2)C3)CC1F (single isomer, unassigned) [Example A84B]	1140
CN(C)C1CN(c2ccc3nc4n(c3c2)C23CCC(CN(CCOc5c(cnn5C)-c5cc(cn(C)c5=O)C(=O)N4)C2)C3)CC1(F)F (single isomer, unassigned) [Example A99B]	59
CN1CC2CN(c3ccc4nc5n(c4c3)C34CCC(CC3)CN(CCOc3c(cnn3C)-c3cc(cn(C)c3=O)C(=O)N5)C4)CC2C1 (centres unmarked)	71
CN1CCN(C2CCN(c3ccc4nc5n(c4c3)C34CCC(CN(CCOc6c(cnn6C)-c6cc(cn(C)c6=O)C(=O)N5)C3)C4)CC2)CC1 (single isomer, unassigned) [Example A106B]	2.2

A. CN1C2CC1CN(c1ccc3nc4n(c3c1)C13CCC(CN(CCOc5c(cnn5C)-c5cc(cn(C)c5=O)C(=O)N4)C1)C3)C2 (single isomer, unassigned) [Example A98A]
B. Cn1ncc2c1OCCN1CC3CCC(C3)(C1)n1c(nc3ccc(N4CCC(N5CCOCC5)C4)cc31)NC(=O)c1cc-2c(=O)n(C)c1 (single isomer, unassigned) [Example A104B]
Challenge: Between the entries labeled A and B , whose measured IC50 is lower? Refer to your chosen entry by its label in the reply.
Response given: B
